system: Hep-2 cells; experiment: Toxicity studies (XTT), Hep-2 cells; format: cell-based; parameters: unit not given beside the values; details: Table 2, Examples 75 to 82 and 125 to 184, 6d, in µM
Each record here notes measured TC50 (6d).
ASSAY METRIC: TC50 (6d)

COMPOUND: O=C1Nc2ccccc2C(c2ccccc2)=NC1NC(=O)n1c(=O)[nH]c2ccccc21 (stereo not drawn) [Example 177]
VALUE: >50
//
COMPOUND: O=C(Nc1cccc(C(F)(F)F)c1)NC1N=C(c2ccccc2)c2ccccc2NC1=O (stereo not drawn) [Example 130]
VALUE: 39.5
//
COMPOUND: O=C(N[C@H]1N=C(c2ccccc2)c2ccccc2NC1=O)c1cc(F)c(F)cc1F [Example 79b]
VALUE: >50

Source: patent US8119630B2
